B1: TRIM29 (parent)
chain: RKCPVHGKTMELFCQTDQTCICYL

Variants of: B1
METHOD DESCRIPTION: protein stability index of a GFP-peptide fusion (GPS, HEK-293T) (PSI 1-6); higher = more stable;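 note: lentivirally expressed fusions sorted by FACS into six bins by GFP to DsRed ratio, PSI derived from sequencing read proportions per bin multiplied by bin number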
PARTICULARS: c terminus: a fixed tail appended
# maps each entry to its protein stability index
OBSERVATION TYPE: protein stability index

- G7T: 2.46
- C20V: 1.27
- C22S: 2.46
- V5K: 2.3
- Y23F: 1.65
- G7Y: 2.14
- V5W: 2.52
- G7P: 2.46
- K8Q: 2
- C22H: 2.01
- T9D: 2.81
- M10L: 1.99
- D17A: 2.19
- C14Y: 2.59
- D17P: 2.04
- H6A: 2.38
- E11M: 1.7
- R1P: 2.66
- M10I: 3.45
- T19S: 2.63
- K2D: 2.15
- I21W: 2.78
- G7H: 2.38
- R1Y: 2.48
- Y23R: 3.95
- L24F: 4.64
- Y23L: 2.58
- C22R: 1.99
- K8E: 2.59
- C3P: 1.97
- K2R: 1.69
- T9A: 2.95
- R1V: 2.98
- T9P: 1.98
- K8V: 2.54
- E11K: 1.92
- F13C: 2.23
- D17L: 3.97
- H6V: 2.44
- F13H: 2.5
- C3R: 2.12
- E11D: 2.49
- T19M: 2.51
- Q15Y: 1.92
- E11Q: 1.47
- T19D: 1.6
- C3L: 2.3
- K8I: 1.59
- K2S: 2.27
- C14N: 2.33
- L24A: 5.02
- Q18N: 1.82
- V5H: 3.76
- I21A: 2.77
- Q15S: 2.48
- Y23Q: 4.28
- Q18H: 2.18
- V5T: 2.46
- D17N: 1.7
- V5E: 1.79
- P4C: 4.04
- C14M: 1.46
- Q15C: 3.22
- C22P: 2.27
- T9R: 1.21
- C3N: 2.92
- T16G: 3.39
- Q15T: 2.14
- T16N: 2.62
- T19W: 2.47
- E11V: 2.9
- H6F: 2.31
- C3I: 3.19
- C14K: 1.89
- T16M: 1.57
- K2Y: 1.8
- F13G: 2.93
- T19E: 2.4
- T16I: 1.98
- I21R: 1.88
- D17I: 1.79
- V5R: 2.42
- L12G: 1.68
- F13A: 1.78
- M10H: 2.43
- Y23S: 4.29
- C20P: 1.83
- T19H: 2.95
- C3G: 2.1
- Y23I: 2.73
- C14S: 2.35
